Source: patent US20230027475A1

Reported Kd values for a set of binders
SYSTEM_UNDER_TEST: T1, A56.hFc (Vaccinia virus, Wyeth strain, UniProt P20978 17-279)
T1 construct: also called A56 human Fc fusion protein; A56 protein
T1 chain: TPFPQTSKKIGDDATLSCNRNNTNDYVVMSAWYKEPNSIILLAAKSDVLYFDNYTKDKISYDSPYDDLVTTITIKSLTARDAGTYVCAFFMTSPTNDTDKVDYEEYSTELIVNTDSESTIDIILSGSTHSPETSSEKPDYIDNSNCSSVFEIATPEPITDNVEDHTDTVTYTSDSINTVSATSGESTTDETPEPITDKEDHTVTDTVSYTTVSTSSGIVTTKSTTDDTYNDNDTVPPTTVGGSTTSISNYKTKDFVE
ASSAY: SPR Biacore T200, antibody amine-coupled, […]
A number alone suffices; assume nM.

BINDER	Kd, nM
A054 (antibody, V domains shown, also called A054 (A56); anti-A56 rabbit antibody A054 hIgG1) VH: QEQVVESGGGLVKPGASLTLTCTASGFTLSSSYWICWVRQAPGKGPEWIACTYNGDGSTHYASWAKGRFTISKSSSTTVTLQMTSLTAADTATYFCARDYTDAFYTYGFNLWGPGTLVTVSS VL: DIVMTQTPASVSEPVGGTVTIKCQASQSTSSYLAWYQQKPGQPPKLLIYRASSLASGVPSRFKGSGSATEFTLTISDLECADAATYYCQTGFYGSSGHTFGGGTEVVVK	15.3

Annotate the binder A047 (antibody, V domains shown, also called A047 (A56); anti-A56 rabbit antibody A047 hIgG1) VH: QEQLEESGGDLVKPEGSLTLTCTASGFSFSSSYWICWVRQAPGKGLEWIACIYAGSGGSTYYATWAKGRFTISKTSSTTVTLQMTSLTAADTASYFCVRAYSDRSGGYSFNLWGPGTLVTVSS VL: QVLTQTASPVSAAVGGTVTINCQASQSVDNNNYLAWYQQKPGQPPKQLIYSASSLASGVPSRFKGSGSGTQFTLTISDVQCDDAATYYCLGSYDCSDADCYAFGGGTEVVVK with its measured Kd.
2.34
